Reference for the values: the supplement of paper PMC9233669

# Tested on: biotinyl-Trp-oxazolone
# RUN DESCRIPTION: self-aminoacylation, catalytic enhancement (BWO) (fold over background); higher = more active; k-Seq, kA / k0A0; sequences stand for … in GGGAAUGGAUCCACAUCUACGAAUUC…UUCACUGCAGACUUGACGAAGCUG
Fewer inactive variants are shown than the library holds.
Everything with self-aminoacylation lower than 2 is false; everything else, including exactly 2, is true.

Solved entries:
{"columns": ["POLYMER SEQUENCE", "QUALITATIVE LABEL"],
 "data": [
  ["CCACACUUCAAGCCCUCGGUC [Fam1B.1 aminoacylation ribozyme variant]", "false"],
  ["CCACACUCCAAGCAAUCGCUC [Fam1B.1 aminoacylation ribozyme variant]", "true"]
]}

Answer whether self-aminoacylation of AUACACCUAGGUCACCGGGUG [Fam2.2 aminoacylation ribozyme variant] is greater than or equal to 2.
true

And then GUUACCCUGGUCAUCGAGCGA [Fam2.1 aminoacylation ribozyme variant] , what is it?
true

* * *

# Tested on: biotinyl-Met-oxazolone
# RUN DESCRIPTION: self-aminoacylation, catalytic enhancement (BMO) (fold over background); higher = more active; k-Seq, kA / k0A0; sequences stand for … in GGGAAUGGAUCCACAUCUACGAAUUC…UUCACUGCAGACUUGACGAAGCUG
Variants at the floor of the assay were thinned out.
OBSERVABLE: self-aminoacylation
API doc: respond with a numeric literal and nothing else, no unit.

Would you please look over these solved cases?
{"columns": ["POLYMER SEQUENCE", "TEST RESULT"],
 "data": [
  ["UUACUUCAAACAAUCGCUCUG [Fam1A.1 aminoacylation ribozyme variant]", 1.07],
  ["AUUACCCUAGUCAUCGGGUGA [Fam2.1 aminoacylation ribozyme variant]", 7.55],
  ["CUUCUUCAAACAAGCGGUCUG [Fam1A.1 aminoacylation ribozyme variant]", 0.925]
]}

Using the record for AUCCACCUAGGUCCUCGGGUG [Fam2.2 aminoacylation ribozyme variant] , report its self-aminoacylation.
6.2

Also AUUACCCUGGUCAUCGAGUGC [Fam2.1 aminoacylation ribozyme variant] , if possible.
11.4

Then what about the sequence AUUACCCUGGUAACCGAGUGA [Fam2.1 aminoacylation ribozyme variant] ?
12.5

And the next one, AAGUGUUCUAAUAGUCGCAAG [Fam3.1 aminoacylation ribozyme variant] ?
1.7

Try this sequence next: ACACACUUCAAGCACUCGGUC [Fam1B.1 aminoacylation ribozyme variant]
1.42

Thanks! And AUUCACCUAGGUCAUGGGGUG [Fam2.2 aminoacylation ribozyme variant] ?
5.76

Note, next up: CUAUUUCAAACAAUCGGUCUU [Fam1A.1 aminoacylation ribozyme variant]
0.878

Do the same for AUACCUCAAACAAUCGGUCUG [Fam1A.1 aminoacylation ribozyme variant] please
0.919

* * *

# Test system: biotinyl-Leu-oxazolone
# RUN DESCRIPTION: self-aminoacylation, catalytic enhancement (BLO) (fold over background); higher = more active; k-Seq, kA / k0A0; sequences stand for … in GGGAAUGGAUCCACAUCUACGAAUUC…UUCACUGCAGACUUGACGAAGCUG
This sample holds only a part of the variants without activity.
OBSERVABLE: self-aminoacylation
// no unit string in output, number only

Below: 3 sequences and their reported self-aminoacylation.
{"columns": ["POLYMER SEQUENCE", "SYSTEM UNDER TEST", "TEST RESULT"],
 "data": [
  ["CCACUUCAAACAAUCGGUUUG [Fam1A.1 aminoacylation ribozyme variant]", "biotinyl-Leu-oxazolone", 2.57],
  ["GUUCACCCAGGUCAUCGGGUG [Fam2.2 aminoacylation ribozyme variant]", "biotinyl-Leu-oxazolone", 5.02],
  ["CCACACUUCAAGCUAUCGGUU [Fam1B.1 aminoacylation ribozyme variant]", "biotinyl-Leu-oxazolone", 1.12]
]}

Data request, read-out self-aminoacylation, for AUUACCCUGGUCAUUAAGUGA [Fam2.1 aminoacylation ribozyme variant]
10.3

* * *

Below, each of the sequences is paired with its reported self-aminoacylation value.
# Tested on: biotinyl-Phe-oxazolone
# RUN DESCRIPTION: self-aminoacylation, catalytic enhancement (BFO) (fold over background); higher = more active; k-Seq, kA / k0A0; sequences stand for … in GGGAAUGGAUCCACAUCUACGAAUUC…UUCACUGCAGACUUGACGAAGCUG
Variants at the floor of the assay were thinned out.
Respond with the number and no other words.

Solved cases (3 shown):
{"columns": ["POLYMER SEQUENCE", "OBSERVABLE", "TEST RESULT"],
 "data": [
  ["AUUCAGCUAGGUCAUCGCGUG [Fam2.2 aminoacylation ribozyme variant]", "self-aminoacylation", 54.8],
  ["CUACUUCAAACAUUCGGUUUG [Fam1A.1 aminoacylation ribozyme variant]", "self-aminoacylation", 0.613],
  ["CAACAAUUCAAGCAAUCGGUC [Fam1B.1 aminoacylation ribozyme variant]", "self-aminoacylation", 1.71]
]}

# self-aminoacylation lookup, item CUACAUUUCAAGCAAUCGGUC [Fam1B.1 aminoacylation ribozyme variant]
2.41

How about this sequence: CCUCACUUCAGGCAAUCGGUC [Fam1B.1 aminoacylation ribozyme variant]
1.59

Same read-out for GCACACCUCAAGCAAUCGGUC [Fam1B.1 aminoacylation ribozyme variant] ?
2.09

Also need GUACUUCAAACAAUCGGACUG [Fam1A.1 aminoacylation ribozyme variant] , thanks.
5.92

Entry CCACAAUGCAAGCAAUCGGUC [Fam1B.1 aminoacylation ribozyme variant] please
1.02

* * *

# System: biotinyl-Ile-oxazolone
# RUN DESCRIPTION: self-aminoacylation, catalytic enhancement (BIO) (fold over background); higher = more active; k-Seq, kA / k0A0; sequences stand for … in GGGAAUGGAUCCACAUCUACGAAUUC…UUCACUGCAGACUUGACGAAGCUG
Variants at the floor of the assay were thinned out.
Reported self-aminoacylation values follow for various sequences
Answer using only a numeral; do not append any unit.

A selection of reference data follows.
{"columns": ["POLYMER SEQUENCE", "self-aminoacylation"],
 "data": [
  ["CUUCUUCAAACAAUCGGUCUG [Fam1A.1 aminoacylation ribozyme variant]", 0.898],
  ["CUACUGCAAACAAUCCGUCUG [Fam1A.1 aminoacylation ribozyme variant]", 0.953],
  ["AGUCAUCUAGGUCAUCGGGUG [Fam2.2 aminoacylation ribozyme variant]", 5.24],
  ["GUUACCCCGGUCAUCGAGUGA [Fam2.1 aminoacylation ribozyme variant]", 3.82],
  ["CUUACCCUGGUCAUCGAGUGA [Fam2.1 aminoacylation ribozyme variant]", 9.83],
  ["CUACUUCAAAGCAUCGGUCUG [Fam1A.1 aminoacylation ribozyme variant]", 0.857],
  ["CCAAACCUCAAGCAAUCGGUC [Fam1B.1 aminoacylation ribozyme variant]", 1.35],
  ["ACUACCCUGGUCAUCGAGUUA [Fam2.1 aminoacylation ribozyme variant]", 2.05]
]}

# input for lookup
Given the entry AAGUAUGCUAAUAGUCGCAUG [Fam3.1 aminoacylation ribozyme variant] , report its measured self-aminoacylation.
1.34

* * *

# System: biotinyl-Leu-oxazolone
# RUN DESCRIPTION: self-aminoacylation, catalytic enhancement (BLO) (fold over background); higher = more active; k-Seq, kA / k0A0; sequences stand for … in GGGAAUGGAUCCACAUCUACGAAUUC…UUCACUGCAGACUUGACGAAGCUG
Fewer inactive variants are shown than the library holds.
OBSERVABLE: self-aminoacylation
Number only, no unit.

Some solved cases for reference:
{"columns": ["POLYMER SEQUENCE", "SYSTEM UNDER TEST", "self-aminoacylation"],
 "data": [
  ["CUACUUCAAACAAUCGGUUGG [Fam1A.1 aminoacylation ribozyme variant]", "biotinyl-Leu-oxazolone", 0.788],
  ["AAGUUUGCUAAUAGACGCUAG [Fam3.1 aminoacylation ribozyme variant]", "biotinyl-Leu-oxazolone", 0.495],
  ["CCGGACUUCAAGCAAUCGGUC [Fam1B.1 aminoacylation ribozyme variant]", "biotinyl-Leu-oxazolone", 2.03],
  ["AGUACCCUCGUCAUCGAGUGA [Fam2.1 aminoacylation ribozyme variant]", "biotinyl-Leu-oxazolone", 3.97],
  ["AUCACCCUGGUCAUCUAGUGA [Fam2.1 aminoacylation ribozyme variant]", "biotinyl-Leu-oxazolone", 11.7]
]}

Reported self-aminoacylation for CCACUUCAAACUAUCGGUCUG [Fam1A.1 aminoacylation ribozyme variant] : what is it?
1.16

Please answer likewise for ACACUUCAAACAAUCGGUCUG [Fam1A.1 aminoacylation ribozyme variant]
2.16

How about this sequence: UUACUUCUAACAAUCGGUCUG [Fam1A.1 aminoacylation ribozyme variant]
1.11

* * *

Overview of recorded self-aminoacylation for various sequences
# System: biotinyl-Phe-oxazolone
# RUN DESCRIPTION: self-aminoacylation, catalytic enhancement (BFO) (fold over background); higher = more active; k-Seq, kA / k0A0; sequences stand for … in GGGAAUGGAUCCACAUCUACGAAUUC…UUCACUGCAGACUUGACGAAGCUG
This sample holds only a part of the variants without activity.

{"columns": ["POLYMER SEQUENCE", "SYSTEM UNDER TEST", "self-aminoacylation"],
 "data": [
  ["AUACUUCAACCAAUCGGUCUG [Fam1A.1 aminoacylation ribozyme variant]", "biotinyl-Phe-oxazolone", 5.09],
  ["AAGUUUGCGCAUAGUCGCAAG [Fam3.1 aminoacylation ribozyme variant]", "biotinyl-Phe-oxazolone", 2.97],
  ["GUUCACCUAGCUCAUCGGGUG [Fam2.2 aminoacylation ribozyme variant]", "biotinyl-Phe-oxazolone", 1.08],
  ["AUUACCCUGGUCAUCGAGUGC [Fam2.1 aminoacylation ribozyme variant]", "biotinyl-Phe-oxazolone", 24.9],
  ["AUUCGCCUGGUCAUCGAGUGA [Fam2.1 aminoacylation ribozyme variant]", "biotinyl-Phe-oxazolone", 16.6],
  ["CUACUUCAACGAAUCGGUCUG [Fam1A.1 aminoacylation ribozyme variant]", "biotinyl-Phe-oxazolone", 4.58],
  ["AAGUUUGAUAAUAGUCACAAG [Fam3.1 aminoacylation ribozyme variant]", "biotinyl-Phe-oxazolone", 0.914],
  ["AUUCACCUAGGUCAUGGGGCG [Fam2.2 aminoacylation ribozyme variant]", "biotinyl-Phe-oxazolone", 1.37]
]}

Kindly review the next sequence as well.
Query: self-aminoacylation; subject: AGUCACCUAGGUCAUCGAGUG [Fam2.2 aminoacylation ribozyme variant]
6.67
